Answer each item with its documented aPTT ratio relative to PBS group.
# Tested on: blood coagulation
# EXPERIMENT DESCRIPTION: PT and aPTT assay in cynomolgus monkeys (Example 46)
# Assay type: in vivo
# SETUP CONDITIONS: Day 38; platelet poor plasma; relative to PBS group
Strand notation (5' to 3'): a small letter for the sugar, then the base; units joined by * are phosphorothioate-linked, units joined directly phosphodiester-linked; [ ] holds rarer units or linkages, { } end groups; capitals alone tell only the bases. e = 2'-O-(2-methoxyethyl) (MOE); [5mC] = 5-methylcytosine; d = 2'-deoxy (DNA)
Response field accepts a number only; no unit should be typed.

Reported aPTT ratio relative to PBS group, substance ISIS 416858: MOE gapmer, nucleobases 1275 to 1318 of SEQ ID NO: 1 (Table 8) (antisense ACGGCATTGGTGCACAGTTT; MOE gapmer, wing and gap sizes not given here) : ____ 1.41

Reported aPTT ratio relative to PBS group, substance ISIS 449710: 3-8-3, 4-8-4, 2-10-2, 3-10-3 or 4-10-4 MOE microwalk gapmer (Table 46) (antisense e[5mC]*eA*e[5mC]*dA*dG*dT*dT*dT*d[5mC]*dT*dG*dG*d[5mC]*eA*eG*eG) : ____ 1.02

Reported aPTT ratio relative to PBS group, substance ISIS 449709: 3-8-3, 4-8-4, 2-10-2, 3-10-3 or 4-10-4 MOE microwalk gapmer (Table 46) (antisense eG*e[5mC]*eA*e[5mC]*dA*dG*dT*dT*dT*d[5mC]*dT*dG*dG*d[5mC]*eA*eG*eG*e[5mC]) : ____ 1.08

Reported aPTT ratio relative to PBS group, substance ISIS 445531: 5-8-5 or 6-8-6 MOE microwalk gapmer (Table 44) (antisense eG*eG*e[5mC]*eA*eT*dT*dG*dG*dT*dG*d[5mC]*dA*d[5mC]*eA*eG*eT*eT*eT) : ____ 1.06

###

# Test system: human Factor 11 mRNA
# EXPERIMENT DESCRIPTION: Dose-dependent inhibition of human Factor 11 in HepB3 cells, electroporation (Example 7)
# Type: cell-based
# SETUP CONDITIONS: 1111.11 nM, ~16 hours
Answer each item with its documented percent inhibition of human Factor 11 mRNA relative to untreated control cells.
Unit % implied. Number only.

Reported percent inhibition of human Factor 11 mRNA relative to untreated control cells, substance 416826 (antisense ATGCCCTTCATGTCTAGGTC; 5-10-5 gapmer, further chemistry not given here) [compound 416826] : ____ 61

Reported percent inhibition of human Factor 11 mRNA relative to untreated control cells, substance 416999 (antisense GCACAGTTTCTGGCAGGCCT; 2-13-5 gapmer chemistry, further chemistry not given here) [compound 416999] : ____ 78

Reported percent inhibition of human Factor 11 mRNA relative to untreated control cells, substance 416858 (antisense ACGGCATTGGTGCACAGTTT; 5-10-5 gapmer, further chemistry not given here) [compound 416858] : ____ 64

###

# SETUP CONDITIONS: mouse, in vivo, sc, 50 mg/kg
e = 2'-O-(2-methoxyethyl) (MOE); d = 2'-deoxy (DNA)
Answer each item with its documented WBC.
Response field accepts a number only; no unit should be typed.

Reported WBC, substance ISIS 445532: 5-8-5 or 6-8-6 MOE microwalk gapmer (Table 44) (antisense CGGCATTGGTGCACAGTT; sugars from the 5' end e5 d8 e5, backbone and methylation of C not given here) : ____ 7

Reported WBC, substance ISIS 445503: 5-8-5 or 6-8-6 MOE microwalk gapmer (Table 44) (antisense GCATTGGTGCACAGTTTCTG; sugars from the 5' end e6 d8 e6, backbone and methylation of C not given here) : ____ 8

Reported WBC, substance ISIS 445509: 5-8-5 or 6-8-6 MOE microwalk gapmer (Table 44) (antisense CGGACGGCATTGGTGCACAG; sugars from the 5' end e6 d8 e6, backbone and methylation of C not given here) : ____ 5

Reported WBC, substance ISIS 445504: 5-8-5 or 6-8-6 MOE microwalk gapmer (Table 44) (antisense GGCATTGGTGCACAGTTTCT; sugars from the 5' end e6 d8 e6, backbone and methylation of C not given here) : ____ 5

###

Answer each item with its documented ALT.
# EXPERIMENT DESCRIPTION: Liver function, ALT, AST, bilirubin in cynomolgus monkeys (Example 46)
# Format: in vivo
# SETUP CONDITIONS: Day 31; plasma
Strand notation (5' to 3'): a small letter for the sugar, then the base; units joined by * are phosphorothioate-linked, units joined directly phosphodiester-linked; [ ] holds rarer units or linkages, { } end groups; capitals alone tell only the bases. e = 2'-O-(2-methoxyethyl) (MOE); [5mC] = 5-methylcytosine; d = 2'-deoxy (DNA)
Unit IU/L implied. Number only.

Reported ALT, substance ISIS 449711: 3-8-3, 4-8-4, 2-10-2, 3-10-3 or 4-10-4 MOE microwalk gapmer (Table 46) (antisense eA*e[5mC]*dA*dG*dT*dT*dT*d[5mC]*dT*dG*dG*d[5mC]*eA*eG) : ____ 48

Reported ALT, substance ISIS 449707: 3-8-3, 4-8-4, 2-10-2, 3-10-3 or 4-10-4 MOE microwalk gapmer (Table 46) (antisense e[5mC]*eA*e[5mC]*eA*dG*dT*dT*dT*d[5mC]*dT*dG*dG*e[5mC]*eA*eG*eG) : ____ 52

Reported ALT, substance ISIS 416850: MOE gapmer, nucleobases 1275 to 1318 of SEQ ID NO: 1 (Table 8) (antisense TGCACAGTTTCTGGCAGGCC; MOE gapmer, wing and gap sizes not given here) : ____ 45

Reported ALT, substance ISIS 449710: 3-8-3, 4-8-4, 2-10-2, 3-10-3 or 4-10-4 MOE microwalk gapmer (Table 46) (antisense e[5mC]*eA*e[5mC]*dA*dG*dT*dT*dT*d[5mC]*dT*dG*dG*d[5mC]*eA*eG*eG) : ____ 37

Reported ALT, substance ISIS 445531: 5-8-5 or 6-8-6 MOE microwalk gapmer (Table 44) (antisense eG*eG*e[5mC]*eA*eT*dT*dG*dG*dT*dG*d[5mC]*dA*d[5mC]*eA*eG*eT*eT*eT) : ____ 57

Reported ALT, substance ISIS 416858: MOE gapmer, nucleobases 1275 to 1318 of SEQ ID NO: 1 (Table 8) (antisense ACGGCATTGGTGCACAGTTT; MOE gapmer, wing and gap sizes not given here) : ____ 46

Reported ALT, substance ISIS 449708: 3-8-3, 4-8-4, 2-10-2, 3-10-3 or 4-10-4 MOE microwalk gapmer (Table 46) (antisense eA*e[5mC]*eA*dG*dT*dT*dT*d[5mC]*dT*dG*dG*e[5mC]*eA*eG) : ____ 44

Reported ALT, substance ISIS 445522: 5-8-5 or 6-8-6 MOE microwalk gapmer (Table 44) (antisense eG*e[5mC]*eA*e[5mC]*eA*dG*dT*dT*dT*d[5mC]*dT*dG*dG*e[5mC]*eA*eG*eG*e[5mC]) : ____ 40

Reported ALT, substance ISIS 449709: 3-8-3, 4-8-4, 2-10-2, 3-10-3 or 4-10-4 MOE microwalk gapmer (Table 46) (antisense eG*e[5mC]*eA*e[5mC]*dA*dG*dT*dT*dT*d[5mC]*dT*dG*dG*d[5mC]*eA*eG*eG*e[5mC]) : ____ 65

###

# Tested on: human Factor 11 mRNA
# EXPERIMENT DESCRIPTION: Antisense inhibition of human Factor 11 in HepG2 cells by microwalk gapmers, lipofectin, 75 nM (Example 3)
# Format: cell-based
# SETUP CONDITIONS: HepG2, lipofectin, ~24 h, gapmers targeted to nucleobases 656 to 704 of SEQ ID NO: 1
Strand notation (5' to 3'): a small letter for the sugar, then the base; units joined by * are phosphorothioate-linked, units joined directly phosphodiester-linked; [ ] holds rarer units or linkages, { } end groups; capitals alone tell only the bases. e = 2'-O-(2-methoxyethyl) (MOE); [5mC] = 5-methylcytosine; d = 2'-deoxy (DNA)
Answer each item with its documented % inhibition.
Unit % implied. Number only.

Reported % inhibition, substance 416872 (antisense e[5mC]*eA*eT*dA*dA*dA*dT*dG*dT*d[5mC]*dT*dT*dT*dG*dT*dT*dG*e[5mC]*eA*eA) [compound 416872] : ____ 20

Reported % inhibition, substance 416955 (antisense eG*eG*dT*d[5mC]*d[5mC]*dA*d[5mC]*dA*dT*dA*dA*dA*dT*dG*dT*e[5mC]*eT*eT*eT*eG) [compound 416955] : ____ 75

Reported % inhibition, substance 416881 (antisense e[5mC]*eT*eA*dG*dG*dT*d[5mC]*d[5mC]*dA*d[5mC]*dA*dT*dA*dA*dA*dT*dG*eT*e[5mC]*eT) [compound 416881] : ____ 81

Reported % inhibition, substance 416812 (antisense eT*e[5mC]*e[5mC]*eA*e[5mC]*dA*dT*dA*dA*dA*dT*dG*dT*d[5mC]*dT*eT*eT*eG*eT*eT) [compound 416812] : ____ 59

Reported % inhibition, substance 416814 (antisense eA*eG*eG*eT*e[5mC]*d[5mC]*dA*d[5mC]*dA*dT*dA*dA*dA*dT*dG*eT*e[5mC]*eT*eT*eT) [compound 416814] : ____ 83

Reported % inhibition, substance 416895 (antisense eT*eA*eT*dG*d[5mC]*d[5mC]*d[5mC]*dT*dT*d[5mC]*dA*dT*dG*dT*d[5mC]*dT*dA*eG*eG*eT) [compound 416895] : ____ 95

Data origin: patent US20230263822A1
